molecular target: human DGKζ (Homo sapiens, UniProt Q13574); construct: TVMV protease cleavage site (C); Hexa-His (C); made in house; host or cells: Sf9 insect cells (baculovirus, Bac-to-Bac); experiment: DGKζ LIPGLO assay (extruded liposome substrate), in vitro DGK inhibition; format: biochemical; settings: liposome (LIPGLO) assay; read-out: DGKz LIPGLO IC50
Sequence (Q13574 with tags, fused parts or gaps isoform Q13574-4): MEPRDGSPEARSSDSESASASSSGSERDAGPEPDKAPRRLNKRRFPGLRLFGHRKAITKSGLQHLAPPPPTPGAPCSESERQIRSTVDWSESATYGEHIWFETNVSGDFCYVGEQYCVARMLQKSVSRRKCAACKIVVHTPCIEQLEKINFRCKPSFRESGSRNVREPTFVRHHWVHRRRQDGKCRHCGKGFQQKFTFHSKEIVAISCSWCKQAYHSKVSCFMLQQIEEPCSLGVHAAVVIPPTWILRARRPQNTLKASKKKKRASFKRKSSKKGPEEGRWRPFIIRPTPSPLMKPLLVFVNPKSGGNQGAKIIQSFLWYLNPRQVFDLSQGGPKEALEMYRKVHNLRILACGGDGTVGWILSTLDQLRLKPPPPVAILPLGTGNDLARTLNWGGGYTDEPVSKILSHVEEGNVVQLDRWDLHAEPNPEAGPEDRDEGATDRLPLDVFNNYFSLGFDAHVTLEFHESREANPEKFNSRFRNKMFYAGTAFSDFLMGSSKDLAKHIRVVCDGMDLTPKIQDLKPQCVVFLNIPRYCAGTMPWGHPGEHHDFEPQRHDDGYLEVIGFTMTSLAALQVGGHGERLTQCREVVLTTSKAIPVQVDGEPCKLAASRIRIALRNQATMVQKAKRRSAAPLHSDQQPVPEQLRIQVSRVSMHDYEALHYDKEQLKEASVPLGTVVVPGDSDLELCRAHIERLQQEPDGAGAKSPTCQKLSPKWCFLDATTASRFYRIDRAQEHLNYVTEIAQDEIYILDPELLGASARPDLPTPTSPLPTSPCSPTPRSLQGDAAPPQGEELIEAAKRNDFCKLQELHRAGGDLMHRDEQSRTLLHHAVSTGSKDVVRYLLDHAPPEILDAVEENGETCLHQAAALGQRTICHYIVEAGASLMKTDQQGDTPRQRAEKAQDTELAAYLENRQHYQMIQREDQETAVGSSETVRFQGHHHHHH
pIC50: −log10 of the molar value.
testReadout: pIC50

1: C[C@@H]1CN(c2cc(=O)n(C)c3ccc(C#N)nc23)[C@@H](C)CN1C(c1ccc(Cl)cc1)c1ccc2c(c1)OC(F)(F)O2 (single isomer, unassigned) [Example 657]
2: COc1cc(C(C)N2C[C@H](C)N(c3cc(=O)n(C)c4ccc(C#N)nc34)C[C@H]2C)ccc1F (single isomer, unassigned) [Example 1231]
Could you tell me which of 1 and 2 has the lower pIC50 reading? Kindly state the label of the option you pick.
1
(1: 5.80, 2: 6.96)

a: CCc1cc(F)ccc1C(c1ccc(F)cc1)N1C[C@H](C)N(c2cc(=O)n(C)c3ccc(C#N)nc23)C[C@H]1C (single isomer, unassigned) [Example 228]
b: CC(c1ccc(C2CC2)cc1F)N1C[C@H](C)N(c2cc(=O)n(C)c3ccc(C#N)nc23)C[C@H]1C (single isomer, unassigned) [Example 1201]
For the two items a and b , which reports the higher pIC50 value? Kindly state the label of the option you pick.
a

1: C[C@@H]1CN(c2cc(=O)n(C)c3ccc(C#N)nc23)[C@@H](C)CN1Cc1ccc(F)c(OC(F)(F)F)c1 [Example 585]
2: CC(c1ccc(OC(C)(C)C)cc1)N1C[C@H](C)N(c2cc(=O)n(C)c3ccc(C#N)nc23)C[C@H]1C (single isomer, unassigned) [Example 1441]
For the two items 1 and 2 , which reports the higher pIC50 value? Kindly state the label of the option you pick.
1
(1: 5.82, 2: 5.32)
